Recorded IC50 at 72 h, one value per entry.
# assay_details: Hit confirmation in dose-response curve in HepG2 cytotoxicity assay, at 72h
# Assay type: toxicity, cell-based
# Set-up: timepoint 72 hour
# experimental_conditions: human, HepG2 cells

compound	IC50 at 72 h
Cc1ccc(N2C(=O)C[C@]3(CC3(c3ccccc3)c3ccccc3)C2=O)cc1	> 10 µM
CC(CC1OCC(C[N+]2(Cc3ccccc3)CCCCC2)O1)CC(C)(C)C (configuration not stated)	> 10 µM
O=C(Nc1ccc(Cl)c(Cl)c1)Nc1ccc(Cl)cc1NC(=O)Nc1ccc(Cl)c(Cl)c1	> 10 µM
c1ccc(-c2noc(-c3ccc(NC4CCCCC4)nn3)n2)cc1	> 10 µM
Cc1cccc2ncnc(N(C)[C@@H](C)Cc3ccc(O)cc3)c12	> 10 µM
O=C1NCCCOc2cccc(c2)[C@H]2c3ccc(cc3CCN2C(=O)CCN2CCOCC2)Oc2ccc(O)c1c2	> 10 µM
CCNc1nc(C)cc(Nc2ccc(NC(=O)c3cc(C)ccc3C)cc2)n1	> 10 µM
CCc1ccc(/C=C/c2c[nH]c3ccccc23)[n+](CC)c1	> 10 µM
CN(Cc1ccc(-c2ccccc2)cc1)c1cc([C@H]2C[C@@H](N)C2)nc(N)n1	> 10 µM
Cc1oc2ncn(CCN3CCCC3)c(=O)c2c1C(=O)Nc1ccc(C#N)cc1	> 10 µM
CN1CCCN(c2ccc(NC(=O)c3nn(-c4ccccc4)c(=O)c4ccccc34)cc2F)CC1	> 10 µM
O=C(Nc1onc2c1CCC2)c1ccc2ccccc2c1	4.07 µM
COC[C@H](NCCc1cc(F)cc2c1OCOC2)C1CC1	> 10 µM
O=C1NC(=O)c2ccc3c4c(ccc1c24)C(=O)N(c1ccccc1)C3=O	> 10 µM
Cc1ccc(C)c(-n2cnc(=O)n2[C@H]2CCN(C3CC3)C2=O)c1	> 10 µM
COc1ccc2cccc(NC(=O)c3cc(-c4cc(OC)c(OC)c(OC)c4)n[nH]3)c2n1	> 10 µM
O=C(NCc1ccccc1F)C1CCN(c2cncnc2N2CCCC2)CC1	> 10 µM
COc1ccc(-c2cc3ncc(C(=O)c4cc(Cl)ccc4O)cn3n2)cc1	> 10 µM
CC(C)c1cccc(Nc2nc3ccncc3n(C(C)C)c2=O)c1	> 10 µM
COc1ccc(F)cc1S(=O)(=O)N1CCc2noc(N)c2C1	> 10 µM
COc1ccc(CN(Cc2ccncc2)CC2CCN(C3CCN(C)CC3)CC2)c(F)c1	> 10 µM
Clc1ccc(COc2ccc(Cl)cc2CNCCCn2ccnc2)c(Cl)c1	> 10 µM

----------
Entries and their IC50 at 72 h
# assay_details: Re-testing in dose-response curve in HepG2 cytotoxicity assay, at 72h
# Type: toxicity, cell-based
# Parameters: timepoint 72 hour
# experimental_conditions: human, HepG2 cells
assay_metric: IC50 at 72 h

compound	value_measured
CCOC(=O)c1c(CN2CCCC2)n(C)c2cc(-c3cccnc3)c(O)c(Cn3ccnc3)c12	> 25 µM
CC(=O)N(C1CCN(Cc2ccccc2)CC1)C1(C(=O)Nc2ccc3[nH]ccc3c2)CCN(C)CC1	> 25 µM
COc1cccc(-c2cc(O)cc(CC[C@H]3CCCCN3)c2)n1	> 25 µM
CCn1cnc2c(N3CCC[C@H](c4ccncc4)C3)ncnc21	> 25 µM
O=C(c1cscn1)N1CC[C@H](Oc2cccc(Cl)c2)C1	> 25 µM
Nc1c(-c2nc3ccccc3[nH]2)c2nc3ccccc3nc2n1Cc1ccccc1F	24.7 µM
C[C@H]1CCCN(c2nc(-c3ccccn3)nc3ccccc23)C1	1.76 µM
N#Cc1cc(S(=O)(=O)NCCN(C2CC2)S(=O)(=O)c2ccc(Cl)c(C#N)c2)ccc1Cl	13.6 µM
Oc1ccccc1CCN[C@H]1CCc2ccc(F)cc21	> 25 µM
CC1(C)OCc2cc(CNc3ccc4oc(=O)[nH]c4c3)ccc2O1	20.4 µM
NC(=NCc1cccc2cccnc12)N1CCN(c2nccs2)CC1	> 25 µM
CCN1CCN(c2cccc(NC(=O)c3ccc4[nH]c5ccccc5c(=O)c4c3)c2)CC1	7.42 µM
Cc1ccc(O)c(CNCC2(c3ccccc3Cl)CCOCC2)n1	> 25 µM
CC(C)c1ccc2ncnc(N[C@H]3CCc4[nH]cnc4C3)c2c1	> 25 µM
CCc1nc2c(C(=O)N3CCOc4c(C)cc(C)cc43)ccnc2[nH]1	> 25 µM
Cc1cc(NC(=O)C(=O)NC2CC(C)CC(C)(C)C2)n(-c2nc3c(c(=O)[nH]2)CCC3)n1 (stereo unspecified)	0.118 µM
O=S(=O)(Nc1ccc(O)c2cccnc12)N1CCCC1	12.5 µM
Cc1cnccc1NCCNC1CCN(c2ccc3c(c2)CCC3)CC1	5.42 µM
C[C@H](N)c1ccc(Nc2ncc3cc(-c4ccncc4)ccc3n2)cc1	11.4 µM
CCOc1cccc(-c2ccc3nc(-c4cccc(OC)c4)c(CCC(=O)NCCN4CCCC4)n3c2)c1	15.9 µM
Clc1ccc(COc2ccc(Cl)cc2CNCCCn2ccnc2)c(Cl)c1	6.11 µM
Cc1cccc(CN(Cc2cccc(C)n2)C[C@H]2CCCCO2)n1	> 25 µM
COc1ccc2nc(O)c(C(=O)Nc3ccc4c(c3F)CCNC4)cc2c1	2.27 µM
Cc1ccc2c(c1)CCCN2C(=O)CN1CC=C(c2cnn(C)c2)CC1	> 25 µM
CC(C)c1cc(CN(Cc2cc(C(C)C)c(O)c(C(C)C)c2)C2CCCCC2)cc(C(C)C)c1O	> 8.33 µM
Cc1noc(C)c1CN1C[C@@H]2Oc3cc(F)ccc3C(=O)N(C)[C@@H]2C1	> 25 µM
c1cc(N2CC[C@@]3(CCCNC3)C2)c2sccc2n1	> 14.2 µM
Nc1ncc(C(=O)N2CCC3(CCCCCC3)C2)s1	> 25 µM
COc1ccccc1C(=O)NC1=NN2C(=NC(c3ccc(Cl)cc3)=C[C@H]2c2ccc(Cl)cc2)N1	> 25 µM
Clc1ccc(Cn2cc(CNCCCn3ccnc3)c3ccccc32)c(Cl)c1	3.9 µM
Cc1ccc(NC(=O)c2c(C)nc3sc(C(=O)NCc4ccccc4)c(N)c3c2-c2ccccc2Cl)c(C)c1	> 25 µM
Cc1nc(N)nc(C)c1C(=O)Nc1ccc(Nc2ncccn2)cc1	> 25 µM
Clc1cccc(CNCCCNc2ccncc2)c1Cl	16.3 µM
CCCCN(CC)CCNC(=O)C1CCN(C2=NS(=O)(=O)C(c3ccc(OC)cc3)=C2C)CC1	> 25 µM
Cc1ccnc(Nc2ccc(N3CCNCC3)nn2)c1	> 25 µM
O=S(=O)(NC12CCCC1CNC2)c1onc(C2CC2)c1Cl (stereo unspecified)	> 25 µM
CN1CC[C@]2(CCN(c3ccnc4ccsc34)C2)C1	> 24.8 µM
Cc1cnccc1NCCNCc1cccc(O)c1Cl	> 25 µM
Cc1ccc(Nc2ccc(N3CCNCC3)nn2)nc1	> 25 µM
COc1ccc(F)cc1S(=O)(=O)N1CCc2noc(N)c2C1	> 25 µM
CCc1ccc(C(=O)NCCCC2CCCC2O)cc1S(=O)(=O)N1CCOCC1 (stereo unspecified)	> 25 µM
Cc1c([C@@H](NCc2ncccc2O)C(C)C)oc2ccccc12	> 25 µM
COc1ccc(-c2cc(C(=O)N[C@H]3CCN(c4ccc(=O)[nH]n4)C3)c(C)n2C)cc1	> 25 µM
Oc1ccccc1-c1cnc(C(F)(F)F)s1	19.4 µM
CC(C)CC[C@@H](CCNCCN(C)C)c1ccc(Cl)cc1	14.9 µM
CCN1CCN(c2cccc(NC(=O)c3cc(F)cc4c(=O)c5cc(F)ccc5[nH]c34)c2)CC1	3.48 µM

Cited source: ChEMBL document CHEMBL4888484
